src = patent EP0279263B1

assay_system: 5-lipoxygenase (Rattus norvegicus, UniProt P12527)
Construct: 20,000xg supernatant from 6x10⁴ homogenized RBL-1 cells; endogenous in cells
Sequence (P12527 whole entry): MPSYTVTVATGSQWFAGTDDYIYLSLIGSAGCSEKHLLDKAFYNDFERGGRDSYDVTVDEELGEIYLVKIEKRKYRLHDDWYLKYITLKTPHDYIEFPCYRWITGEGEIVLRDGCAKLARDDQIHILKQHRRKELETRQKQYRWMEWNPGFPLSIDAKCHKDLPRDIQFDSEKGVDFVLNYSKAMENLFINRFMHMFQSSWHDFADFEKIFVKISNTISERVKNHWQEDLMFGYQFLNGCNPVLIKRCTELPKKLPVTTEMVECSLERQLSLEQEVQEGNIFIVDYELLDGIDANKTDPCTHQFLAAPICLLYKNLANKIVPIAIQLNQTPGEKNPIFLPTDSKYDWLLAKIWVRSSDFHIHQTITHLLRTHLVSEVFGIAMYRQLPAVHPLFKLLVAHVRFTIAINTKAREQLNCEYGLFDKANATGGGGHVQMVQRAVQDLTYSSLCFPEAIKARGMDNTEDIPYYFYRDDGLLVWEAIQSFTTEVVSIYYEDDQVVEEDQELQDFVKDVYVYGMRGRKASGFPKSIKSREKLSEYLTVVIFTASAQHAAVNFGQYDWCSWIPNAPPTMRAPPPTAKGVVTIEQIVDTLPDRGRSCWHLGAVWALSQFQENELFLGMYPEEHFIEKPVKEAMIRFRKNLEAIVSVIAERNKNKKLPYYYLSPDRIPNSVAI
measurement_notes: Lipoxygenase IC50 determination (5-lipoxygenase inhibitory activity, RBL-1 cell supernatant)
assay_setup: 20,000xg supernatant from homogenized RBL-1 cells, radiolabelled arachidonic acid, 2% DMSO vehicle
Attribute: IC50
Provide only the numeric value, understood in nM.

Which IC50 is reported with 5-lipoxygenase (Rattus norvegicus, UniProt P12527) for this entry: CC(=O)n1c(C(C)N(O)C(N)=O)cc2ccccc21 (centres unmarked) ?
4000

Next compound up: CC(c1cc2ccccc2s1)N(O)C(=O)N(C)C (centres unmarked)
540

Next compound up: CCOc1cccc2cc(C(C)N(O)C(N)=O)oc12 (centres unmarked)
3500

Next compound up: CC(Cc1cc2ccccc2s1)N(O)C(N)=O (centres unmarked)
460

Next compound up: CC(c1cc2cc(F)ccc2s1)N(O)C(N)=O (centres unmarked)
500

Next compound up: CC(c1cc2cc(Cl)cc(Cl)c2o1)N(O)C(N)=O (centres unmarked)
360

Next compound up: CC(=O)N(O)C(C)c1cn(C)c2ccccc12 (centres unmarked)
2600

Next compound up: CC(c1cc2ccccc2n1C)N(O)C(N)=O (centres unmarked)
1600

Next compound up: CNC(=S)N(O)C(C)c1cc2ccccc2s1 (centres unmarked)
190

Next compound up: Cc1ccc(C)c2sc(C(C)N(O)C(N)=O)cc12 (centres unmarked)
400

Next compound up: CC(c1csc2ccccc12)N(O)C(N)=O (centres unmarked)
1300
